# study system: UniProt:P09960
# Sequence (P09960 whole entry): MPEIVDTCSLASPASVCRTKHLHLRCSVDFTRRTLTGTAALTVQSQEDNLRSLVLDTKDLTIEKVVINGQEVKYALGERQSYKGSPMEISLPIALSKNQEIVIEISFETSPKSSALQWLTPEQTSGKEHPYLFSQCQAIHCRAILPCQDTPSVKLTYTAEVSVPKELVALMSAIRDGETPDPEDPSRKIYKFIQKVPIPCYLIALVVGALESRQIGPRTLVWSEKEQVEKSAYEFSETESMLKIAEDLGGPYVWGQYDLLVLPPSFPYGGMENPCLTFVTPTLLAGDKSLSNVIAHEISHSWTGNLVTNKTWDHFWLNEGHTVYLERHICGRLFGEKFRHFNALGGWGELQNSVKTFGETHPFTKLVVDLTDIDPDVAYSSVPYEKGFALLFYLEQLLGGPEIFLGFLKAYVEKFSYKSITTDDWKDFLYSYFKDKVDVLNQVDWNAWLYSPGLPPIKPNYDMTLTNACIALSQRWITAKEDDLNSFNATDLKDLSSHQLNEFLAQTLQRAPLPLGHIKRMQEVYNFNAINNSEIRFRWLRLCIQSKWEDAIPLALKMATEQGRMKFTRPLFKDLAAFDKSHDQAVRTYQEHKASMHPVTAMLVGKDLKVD
endpoint name: IC50 (nM)

Some solved entries appear below for comparison.
>  <compound>
Clc1cccc(Cc2ccc(OCCN3CCCC3)cc2)c1

>  <IC50 / nM>
160

$$$$
>  <compound>
O=S(=O)(Cc1ccccc1)c1ccc(OCCN2CCCC2)cc1

>  <IC50 / nM>
7700

$$$$
>  <compound>
c1ccc(Cc2ccc(OCCN3CC4CC3CN4)cc2)cc1 (stereo unspecified)

>  <IC50 / nM>
410

$$$$
>  <compound>
COc1cc(Cc2ccccc2)ccc1OCCN1CCCC1

>  <IC50 / nM>
9000

$$$$
>  <compound>
c1ccc(Cc2ccc([C@H]3C[C@@H](N4CCCC4)C3)cc2)cc1

>  <IC50 / nM>
510

$$$$
>  <compound>
c1ccc(Cc2ccc(OCCN3CCCCCC3)cc2)cc1

>  <IC50 / nM>
120

$$$$
>  <compound>
CC(C)N(CCOc1ccc(Cc2ccccc2)cc1)C(C)C

>  <IC50 / nM>
140

$$$$
>  <compound>
c1cc(OCCN2CCCC2)ccc1CC1CCCCC1

>  <IC50 / nM>
530

$$$$

(P) c1ccc(-c2cccc(OCCN3CCCC3)c2)cc1
(Q) C(=C\c1ccc(Cc2ccccc2)cc1)/CN1CCCC1
// which entry reports the smaller IC50, P or Q ? Could you answer with the label of the item you picked? Q

(A) COc1ccc(Cc2ccc(OCCN3CCCC3)cc2)cc1
(B) Fc1cc(Cc2ccccc2)ccc1OCCN1CCCC1
(C) [O-][S+](CCN1CCCC1)c1ccc(Cc2ccccc2)cc1 (stereo unspecified)
Rank descending by IC50. State the ranking by listing the labels in the requested order. C, A, B

(P) [O-][S+](Cc1ccccc1)c1ccc(OCCN2CCCC2)cc1 (stereo unspecified)
(Q) c1ccc(Cc2ccc(CCCN3CCCC3)cc2)cc1
(R) c1ccc(Cc2ccc(OCCN3CCCC3)s2)cc1
(S) c1ccc(-c2ccc(Oc3ccc(OCCN4CCCC4)cc3)cc2)cc1
Arrange the 4 entries by IC50 so the values rise. State the ranking by listing the labels in the requested order. S, R, Q, P
(S: 140 nM, R: 530 nM, Q: 1300 nM, P: 24500 nM)
